Sourced from PubChem BioAssay AID1259374

Test system: Microphthalmia-associated transcription factor (Homo sapiens)
Method summary: MITF inhibitors, primary screen, biochemical, AlphaScreen, human (AID 1259374);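 also: 0% = vehicle wells with protein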
Condition description: AlphaScreen MITF homodimerization, bead proximity signal; at 2.6 µM
About 5,900 (0.91%) of roughly 650,000 compounds were called active. Rule as the data show it: active = inhibition above about 50%; inactive = the rest. The full list was thinned out, with actives kept by preference.
Pick one: active, inactive

input: Could you kindly confirm the outcome this assay logged for O=C(CSc1ccccc1)Nc1nc(-c2ccccn2)cs1 ?
output: inactive

input: Could you please tell me the result logged for CC(C)CO/N=C1\C[C@@H](O)[C@@H](O)[C@@H]2[C@@H]3C(=O)N([C@@H](C)c4ccccc4)C(=O)[C@@H]3CC[C@@H]12 in this assay?
output: active

input: How was CCCCCc1ccc(-c2ccc(C(=O)Oc3ccc(-c4ccccc4)cc3)cc2)nc1 classified in this test?
output: inactive

input: For CCCCCOc1ccc(OC(=O)c2ccc(-c3ccc(CCC)cn3)cc2)cc1 , which call appears in the assay record?
output: active

input: Hi team, can someone confirm the assay call for COc1ccc(-c2cc(C(=O)OCC(=O)/C(C#N)=C(\C)N)c3ccccc3n2)cc1 ?
output: inactive

input: # lookup: test call for COc1ccc(C2=NN(c3nc(-c4ccccc4)c4cc(Cl)ccc4n3)C(c3ccc([N+](=O)[O-])cc3)C2)cc1 (centres undefined)
output: inactive

input: Called result for Cc1ccc(C(=O)Nc2cccc(C(=O)N/N=C/c3ccc(C#N)cc3)c2)cc1
output: inactive

input: Hi, sorry to bother you, what did the test record for O=C(N/N=C/c1ccc([N+](=O)[O-])cc1)c1cccc(I)c1 ?
output: inactive

input: Outcome? N#Cc1ccc(OCC(=O)Nc2nc(-c3ccccn3)cs2)cc1
output: active

----------
Test system: Microphthalmia-associated transcription factor (Homo sapiens)
Method summary: MITF inhibitors, primary screen, biochemical, AlphaScreen, human (AID 1259374);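 also: 0% = vehicle wells with protein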
Condition description: AlphaScreen MITF homodimerization, bead proximity signal; at 2.6 µM; stronger effect = higher value
The whole screen tested about 650,000 compounds, of which about 5,900 (0.91%) were called active. For the sample, actives were picked, then their nearest neighbours and some compounds at random.
Reported property: inhibition (%)
Answer format: numeric, % implied, no suffix.

input: GET /values?readout=inhibition&item= COc1ccccc1NC(=O)c1ccc(N2CC3CC(C2)c2cccc(=O)n2C3)c(NC(=O)c2cccnc2)c1 (stereo not given)
output: -6.03

input: Quick check: inhibition of COc1ccc(COCC(O)CNCC(C)(C)CN(C)C)cc1OC (stereo not given) ?
output: 69.4

input: Record request: inhibition value, item CCC(CO)NCC(O)COCc1ccc(Cl)cc1 (stereo not given)
output: -4.49

input: Entry CCOC(=O)C1CCN(C(=O)c2ccc(N3CC4CC(C3)c3cccc(=O)n3C4)c(NC(=O)c3cccnc3)c2)CC1 (stereo not given) : reported inhibition = ?
output: -0.93

input: Report inhibition for CCOc1cc2c(cc1/C=C1/NC(=O)N(CC(=O)Nc3ccccc3C)C1=O)OCO2 please.
output: 12.6

input: For CCOC(=O)C(C)Oc1cccc2c(=O)n(CC(=O)Nc3ccc(C)c(Cl)c3)ccc12 (stereo not given) , what is its reported inhibition?
output: -3.54

input: What measured inhibition goes with CC(=O)N1CCN(C(=O)c2ccc(N3CC4CC(C3)c3cccc(=O)n3C4)c(NC(=O)c3cccnc3)c2)CC1 (stereo not given) ?
output: 60

input: For the compound COc1cc(CNC(C)(C)C)ccc1OCCO , what inhibition is on record?
output: -1.33

input: Requested read-out: inhibition. Entry: CCN(CC)C(=O)C1CCCN(c2cccc(C(=O)NCCOc3ccccc3)c2)C1 (stereo not given)
output: 17.9

input: Recorded inhibition of C/C(=N\Nc1ccc(Cl)c(C(=O)O)c1)c1ccc([N+](=O)[O-])cc1 , please.
output: 0.79
